Origin of measurements: ChEMBL document CHEMBL1151759

Experiment: Chemical stability of compound assessed as half life
Format: physicochemical
quantity: half-life

Q: Input [3H]CC([3H])C(=O)/N=C(/N)NCCC[C@@H](NC(=O)C(c1ccccc1)c1ccccc1)C(=O)NCc1ccc(O)cc1 (stereo partly specified) , output reported half-life.
Ans: 2.2 min

---

Target: Neuropeptide Y receptor type 1 (Homo sapiens, UniProt P25929)
Assay: Displacement of [3H]UR-MK114 from neuropeptide Y1 receptor in human SK-N-MC cells
quantity: pIC50
Entry type: numeric. Quantity: pIC50, the -log10 of concentration in molar units.

Q: Input "CCC(=O)/N=C(/N)NCCC[C@@H](NC(=O)C(c1ccccc1)c1ccccc1)C(=O)NCc1ccc(O)cc1" , output reported pIC50.
Ans: 8.65

---

Target: Neuropeptide Y receptor type 1 (Homo sapiens, UniProt P25929)
Experiment: Binding affinity to neuropeptide Y1 receptor in human MCF7 cells by kinetic experiment
Format: cell-based
quantity: pKd
Entry type: numeric. Quantity: pKd, the -log10 of concentration in molar units.

Q: Input [3H]CC([3H])C(=O)/N=C(/N)NCCC[C@@H](NC(=O)C(c1ccccc1)c1ccccc1)C(=O)NCc1ccc(O)cc1 (stereo partly specified) , output reported pKd.
Ans: 8.96

---

The reader will find reported pKi values listed item by item below.
Target: Neuropeptide Y receptor type 1 (Homo sapiens, UniProt P25929)
Sequence (P25929 whole entry): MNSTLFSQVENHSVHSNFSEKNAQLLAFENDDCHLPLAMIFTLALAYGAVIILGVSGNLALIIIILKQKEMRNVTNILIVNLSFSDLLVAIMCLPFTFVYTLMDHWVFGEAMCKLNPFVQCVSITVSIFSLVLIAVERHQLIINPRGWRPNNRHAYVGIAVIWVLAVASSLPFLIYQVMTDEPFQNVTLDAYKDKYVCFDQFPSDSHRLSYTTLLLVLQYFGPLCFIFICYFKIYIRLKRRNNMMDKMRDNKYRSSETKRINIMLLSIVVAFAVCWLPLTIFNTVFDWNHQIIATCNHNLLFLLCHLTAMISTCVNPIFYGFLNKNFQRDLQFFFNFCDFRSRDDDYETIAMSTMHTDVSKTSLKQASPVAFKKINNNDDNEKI
Assay: Displacement of [3H]UR-MK114 from neuropeptide Y1 receptor in human SK-N-MC cells
Type: cell-based
Entry type: numeric. Quantity: pKi, the -log10 of concentration in molar units.

Here are 2 compounds together with their reported answers.
1. CCOC(=O)CNC(=O)/N=C(/N)NCCC[C@@H](NC(=O)C(c1ccccc1)c1ccccc1)C(=O)NCc1ccc(O)cc1 | 10.00
2. CCNC(=O)/N=C(/N)NCCC[C@@H](NC(=O)C(c1ccccc1)c1ccccc1)C(=O)NCc1ccc(O)cc1 | 10.00

Q: Input "CCC(=O)/N=C(/N)NCCC[C@@H](NC(=O)C(c1ccccc1)c1ccccc1)C(=O)NCc1ccc(O)cc1" , output reported pKi.
Ans: 9.00
